molecular target: SARS-CoV-2 3CLpro (Severe acute respiratory syndrome coronavirus 2, UniProt P0DTD1); test: biochemical; format: biochemical; parameters: unit not given here; conditions: sheet LOPAC_screen_w_protease; LOPAC1280 primary screen at 5 µM, with protease; mean of the two replicates
Consider the cut-off 0.6. If the recorded mean is strictly smaller, the label is Condition met; if not, the label is Condition not met.

Before answering, review these 3 worked examples.
1. COc1ccc(CNC(=O)/C=C/c2ccc3[nH]cc(CCN(C)C)c3c2)cc1 [GR 4661] :: Condition met
2. CC(=O)SCC[N+](C)(C)C.[Cl-] [Acetylthiocholine chloride] :: Condition met
3. Cl.NCC#Cc1ccccc1 [3-Phenylpropargylamine hydrochloride] :: Condition not met

Prompt: mean strictly < 0.6 for this molecule? CC(N)=NCc1cccc(CN)c1.Cl.Cl [1400W dihydrochloride]
Response: Condition met

Prompt: Threshold test, mean < 0.6: Cl.O=C(O)C1CCCN(CCC=C(c2ccccc2)c2ccccc2)C1 (stereo not drawn) [SKF 89976A hydrochloride]
Response: Condition met

Prompt: Check if mean falls below 0.6 for N=C(N)NC(=N)Nc1ccccc1 [1-Phenylbiguanide] .
Response: Condition not met

Prompt: Lab note: mean threshold 0.6. Does this molecule come in strictly under it? O=C(O)/C=C\C(=O)O.O=[N+]([O-])c1ccc2nc(N3CCNCC3)ccc2c1 [Quipazine, 6-nitro-, maleate]
Response: Condition not met

Prompt: Consider the molecule CN1CCN(c2nc3cc(C(F)(F)F)ccc3n3cccc23)CC1.O=C(O)/C=C\C(=O)O [CGS-12066A maleate] . Is its mean strictly less than 0.6?
Response: Condition met

Prompt: Would you kindly verify if mean of COc1ccc2[nH]c3c(c2c1)CCNC3 is strictly less than 0.6?
Response: Condition met

Prompt: Bench note: check whether OC[C@H]1O[C@@H](n2cnc3c(NCCc4ccccc4)ncnc32)[C@H](O)[C@@H]1O [N6-2-Phenylethyladenosine] shows mean below 0.6
Response: Condition not met

###

target: SARS-CoV-2 3CLpro (Severe acute respiratory syndrome coronavirus 2); test: biochemical; assay type: biochemical; parameters: unit not given here; conditions: sheet LOPAC_screen_w_protease; LOPAC1280 primary screen with protease, 5 µM compound; replicate 1
assay-readout: Replicate_1
Give a plain numeric answer without units written out.

Below, 5 compounds whose answers are already recorded.
1) Clc1ccc(N2C[C@H]3CC[C@@H](C2)N3)nn1 :: 7.536
2) COCc1nc2c([nH]1)c(=O)n(C)c(=O)n2CC(C)C :: 6.304
3) COc1ccc2[nH]c(I)c(CCNC(C)=O)c2c1 :: 6.946
4) Cl.Cl.Cn1cnc(CCN)c1 [1-Methylhistamine dihydrochloride] :: 3.059
5) CC(COc1ccc(/C=C/c2ccccc2)cc1)[N+](C)(C)C.[I-] (stereo not drawn) :: 7.703

Continue with the compound presented below.
Prompt: Identify the reported Replicate_1 for the following entry. Cl.O=c1cc(N2CCOCC2)oc2c(-c3ccccc3)cccc12 [LY-294,002 hydrochloride]
Response: 6.484

###

Collected Replicate_2 values appear next to each entry.
biological target: SARS-CoV-2 3CLpro (Severe acute respiratory syndrome coronavirus 2, UniProt P0DTD1); test: biochemical; format: biochemical; design: unit not given here; settings: sheet LOPAC_screen_w_protease; primary screen with protease, replicate 2

Example cases with answers are listed next.
1. Cl.Clc1cc(I)cc(Cl)c1NC1=NCCN1 [p-Iodoclonidine hydrochloride] :: 1.143
2. O=S1(=O)N(CCN2CC=C(c3c[nH]c4cc(F)ccc34)CC2)c2cccc3c2N1CCC3 :: 3.823
3. C#CCn1c(=O)c2c(ncn2C)n(C)c1=O :: 1.263
4. N#CC(C#N)=C(N)/C(C#N)=C/c1ccc(O)cc1 :: 2.046
5. CCCN(CC1CC1)c1nc(C)nc(Nc2c(Cl)cc(Cl)cc2Cl)c1Cl :: 0.3255

Prompt: Kindly indicate its recorded Replicate_2. Item: COc1cc2c(cc1C(F)(F)F)N(C(=O)Nc1cc(F)cc(-c3cccnc3)c1)CC2
Response: 1.565

Prompt: Return Replicate_2 for the following compound: CCCC(=O)NCCc1c2n(c3ccc(OC)cc13)CCCc1ccccc1-2
Response: 1.507
